assay: Metabolic stability in human liver microsome assessed as compound remaining after 60 mins by LC-MS-MS; type: ADME; conditions: liver microsomes, read-out: Stability
valueType: remaining at 1 h

structureSmiles | result
N#Cc1ccccc1N1CCN(C(=O)COCc2ccccc2)CC1 | < 5%

###

assay: Aqueous solubility of the compound in 0.2M sodium phosphate buffer at pH 7.4 by HPLC; format: physicochemical
valueType: solubility

structureSmiles | result
N#Cc1ccccc1N1CCN(C(=O)COCc2ccccc2)CC1 | > 80 µM

###

experiment: Aqueous solubility of the compound in 0.01 N HCl buffer at pH 2 by HPLC; format: physicochemical

structureSmiles | solubility
N#Cc1ccccc1N1CCN(C(=O)COCc2ccccc2)CC1 | > 80 µM
